// reported MOOVA herbicidal rating for each item listed
- Test system: Monochoria vaginalis, Presl.
- PROTOCOL_DESCRIPTION: Preemergence weed control under flooded paddy conditions, MOOVA (Monochoria)
- Format: in vivo
- REPORTED_CONDITIONS: 0.2500 kg/ha; preemergence, flooded paddy; rated three to four weeks after treatment

MOLECULE: CSCOCc1nsc2ccc(-n3c(=O)cc(C(F)(F)F)n(C)c3=O)cc12 [Example 484]
STUDY_SYSTEM: Monochoria vaginalis, Presl.
MOOVA herbicidal rating: 9.0
//
MOLECULE: Cn1c(C(F)(F)F)cc(=O)n(-c2ccc3snc(COC(=O)c4cccs4)c3c2)c1=O [Example 477]
STUDY_SYSTEM: Monochoria vaginalis, Presl.
MOOVA herbicidal rating: 7.0
//
MOLECULE: COc1cc(Cl)c(C)cc1-c1nsc2ccc(-n3c(=O)cc(C(F)(F)F)n(C)c3=O)cc12 [Example 506]
STUDY_SYSTEM: Monochoria vaginalis, Presl.
MOOVA herbicidal rating: 9.0
//
MOLECULE: Cn1c(C(F)(F)F)cc(=O)n(-c2ccc3snc(C(=O)NS(=O)(=O)CCc4ccccc4)c3c2)c1=O [Example 485]
STUDY_SYSTEM: Monochoria vaginalis, Presl.
MOOVA herbicidal rating: 8.0
//
MOLECULE: Cn1c(C(F)(F)F)cc(=O)n(-c2ccc3snc(C(=O)NS(=O)(=O)Cc4cccc(Cl)c4)c3c2)c1=O [Example 486]
STUDY_SYSTEM: Monochoria vaginalis, Presl.
MOOVA herbicidal rating: 9.0

Request: Provide MOOVA herbicidal rating value for the following molecule: Cc1ccc(OC(C)(C)C(=O)O)c(-c2nsc3ccc(-n4c(=O)cc(C(F)(F)F)n(C)c4=O)cc23)c1 [Example 515]
Result: 9.0

Request: Provide only the value of recorded MOOVA herbicidal rating for Cn1c(C(F)(F)F)cc(=O)n(-c2ccc3snc(C(=O)NO)c3c2)c1=O [Example 471]
Result: 9.0

Request: Please indicate MOOVA herbicidal rating recorded for COc1ccc(OC)c(CC(=O)OCc2nsc3ccc(-n4c(=O)cc(C(F)(F)F)n(C)c4=O)cc23)c1 [Example 503]
Result: 9.0

Request: Return reported MOOVA herbicidal rating. Input molecule: Cn1c(C(F)(F)F)cc(=O)n(-c2ccc3snc(COC(=O)c4ccno4)c3c2)c1=O [Example 475]
Result: 9.0

Request: Answer with the recorded MOOVA herbicidal rating of Cc1ccc(CS(=O)(=O)NC(=O)c2nsc3ccc(-n4c(=O)cc(C(F)(F)F)n(C)c4=O)cc23)cc1 [Example 464] only.
Result: 6.0

Request: Input COC(=O)c1nsc2cc(F)c(-n3c(=O)cc(C(F)(F)F)n(C)c3=O)cc12 [Example 513] , output reported MOOVA herbicidal rating.
Result: 9.0

Request: Could you please provide reported MOOVA herbicidal rating for Cn1c(C(F)(F)F)cc(=O)n(-c2cc3c(C(=O)NS(=O)(=O)Cc4ccccc4)nsc3cc2F)c1=O [Example 482] ? Thanks!
Result: 7.0

Request: Look up and report measured MOOVA herbicidal rating for this entry: Cn1c(C(F)(F)F)cc(=O)n(-c2ccc3snc(C(=O)NS(=O)(=O)Cc4ccc(Cl)cc4)c3c2)c1=O [Example 468]
Result: 5.0
